Listed here are molecules together with their documented EC50.
# system.under.test: T1, FGFR1c and the cofactor β-Klotho (Homo sapiens, UniProt P11362+Q86Z14)
# T1 construct: host or cells: iLite FGF21 assay ready cells (genetically engineered reporter gene cell line)
# test: dual-luciferase reporter gene assay in iLite FGF21 assay ready cells
# Type: cell-based
# condition.label: Example 6, four-parameter fitting
Field: numeric (nM). Do not append units.

{"molecule": "Compound 5.13: FGF21D46C mutant (SEQ NO: 7) modified by the albumin-binding agent of Example 2.4 (conjugate, albumin-binding agent of Example 2.4) HPIPDSSPLLQFGGQVRQRYLYTDDAQQTEAHLEIREDGTVGGAACQSPESLLQLKALKPGVIQILGVKTSRFLCQRPDGALYGSLHFDPEACSFRERLLEDGYNVYQSEAHGLPLHLPGNKSPHRDPAPRGPARFLPLPGLPPAPPEPPGILAPQPPDVGSSDPLSMVGGSQGRSPSYES", "measurement.units": "nM", "EC50": 1.84}

Kindly review the next molecule as well.
Requested read-out: EC50. Entry: Compound 5.1: FGF21E30C mutant (SEQ NO: 5) modified by the albumin-binding agent of Example 2.1 (conjugate, albumin-binding agent of Example 2.1) HPIPDSSPLLQFGGQVRQRYLYTDDAQQTCAHLEIREDGTVGGAADQSPESLLQLKALKPGVIQILGVKTSRFLCQRPDGALYGSLHFDPEACSFRERLLEDGYNVYQSEAHGLPLHLPGNKSPHRDPAPRGPARFLPLPGLPPAPPEPPGILAPQPPDVGSSDPLSMVGGSQGRSPSYES 4.61
